system: SNB-75 CNS; assay: NCI-60 one-dose screen, 48 h; settings: 10 µM
About 83,000 compounds went through this panel and 20% of them were active in at least one assay; those are over-represented in the sample as a whole. Calls of active or inactive are those of the source. How the source made its calls: active means growth percent below 10; inactive means the rest.
Field 'call' accepts active, inactive

Take a look at these entries with their results.
INSERT INTO results (structurenotation, targetorsystem, grouplabel) VALUES
  ('CC[C@]12C=CCN3CC[C@@]4(c5ccc(OC)cc5N(C)[C@H]4[C@@](O)(C(=O)OC)[C@@H]1OC(=O)CCC[P+](c1ccc(F)cc1)(c1ccc(F)cc1)c1ccc(F)cc1)[C@@H]32', 'SNB-75 CNS', 'inactive'),
  ('O=C(NCCCCC(c1ccc(F)cc1)c1ccc(F)cc1)Nc1ccc([N+](=O)[O-])c(C(F)(F)F)c1', 'SNB-75 CNS', 'active'),
  ('CC1=C2C(=C[C@@](C)(COP(=O)(Oc3ccccc3)Oc3ccccc3)[C@@H]2O)C(=O)[C@@](C)(O)C12CC2', 'SNB-75 CNS', 'active'),
  ('C#CC[Se]C(=O)c1ccc(C(=O)[Se]CC#C)s1', 'SNB-75 CNS', 'inactive'),
  ('CC1=C(COCCOC(=O)c2ccc(S(=O)(=O)F)cc2)C2=C(C)C3(CC3)[C@@](C)(O)C(=O)C2=C1', 'SNB-75 CNS', 'active');

Query: How did this test come out for COc1cc2cc(C(=O)N3C[C@@H](CCl)c4c3cc(OC(=O)N3CCN(C)[C@@H]5CSSC[C@@H]53)c3ccccc43)[nH]c2c(OC)c1OC ?
Response: active

Query: Same for CC1=C(CCC=NNC(N)=O)C2=C(C)C3(CC3)[C@@](C)(O)C(=O)C2=C1
Response: active

Query: Same for O=C(/C=C/c1ccco1)c1nc2ccccc2n1Cc1ccc(F)cc1
Response: inactive

====

system: MDA-MB-468 breast; experiment: NCI-60 one-dose screen, 48 h; details: 10 µM unless noted
This is part of a sample that, as a whole, favours compounds with a hit. Of some 83,000 tested, about 20% had one in any assay. The source made the active and inactive calls. Rule for the calls: active = growth percent below 10; inactive = the rest.
Field 'call' accepts active, inactive

INSERT INTO results (compound, grouplabel) VALUES
  ('CC12OOC(C)(OO1)C2CCC(=O)NCCCNc1ccnc2cc(Cl)ccc12 (centres undefined)', 'active'),
  ('O=C(CC1(O)C(=O)Nc2ccc(Cl)cc21)c1ccc(C(=O)NCC2CCC3(CC2)OOC2(CCCCC2)OO3)cc1 (centres undefined)', 'inactive'),
  ('N/C(=N/N=C/c1ccncc1)N[N+](=O)[O-]', 'inactive');

Consider the additional compound presented here.
Query: How did this test come out for CC[C@H](C)[C@H](NC(=O)c1ncccn1)C(=O)N(C)[C@H](C[C@@H](OC(C)=O)c1nc(C(=O)N[C@@H](Cc2ccccc2)C[C@H](C)C(=O)OC)cs1)C(C)C ?
Response: inactive

====

test system: UACC-257 melanoma; experiment: NCI-60 one-dose screen, 48 h; conditions: 10 µM
This is part of a sample that, as a whole, favours compounds with a hit. Of some 83,000 tested, about 20% had one in any assay. The source made the active and inactive calls. How the source made its calls: active means growth percent below 10; inactive means the rest.
Field 'call' accepts YES = active, NO = inactive

INSERT INTO assay_data (structurenotation, grouplabel) VALUES
  ('O=C(NCCCCC(c1ccc(F)cc1)c1ccc(F)cc1)Nc1ccc([N+](=O)[O-])c(C(F)(F)F)c1', 'YES'),
  ('C[C@H]1[C@H](OC(=O)CCC(=O)N(CCCc2cn(-c3ccc(C#N)cc3)nn2)CCNc2ccnc3cc(Cl)ccc23)O[C@@H]2OC3(C)CC[C@H]4[C@H](C)CC[C@@H]1[C@@]24OO3', 'NO');

Consider the additional molecule presented here.
Query: How did this test come out for CC[C@]12C=CCN3CC[C@@]4(c5ccc(OC)cc5N(C)[C@H]4[C@@](O)(C(=O)OC)[C@@H]1OC(=O)CCC[P+](c1ccc(C)cc1)(c1ccc(C)cc1)c1ccc(C)cc1)[C@@H]32 ?
Response: YES

====

tested on: MCF7 breast; assay: NCI-60 one-dose screen, 48 h (100 = growth as untreated, 0 = no growth, -100 = all killed); conditions: 10 µM
The panel holds about 83,000 compounds, 20% with a hit somewhere; the sample as a whole holds those more often.
quantityName: growth (%)
Answers are plain numbers, in %.

INSERT INTO measurements (compound, unitstring, quantitativeresult) VALUES
  ('CC12OOC(C)(OO1)C2CCC(=O)NCCNc1ccnc2cc(Cl)ccc12 (stereo unspecified)', '%', 82.3),
  ('CC(C)C[C@H](NC(=O)CNC(=O)C[C@H]1O[C@@H]2OC3(C)CC[C@H]4[C@H](C)CC[C@@H]([C@H]1C)[C@@]24OO3)B(O)O', '%', 19.1),
  ('C[C@H]1[C@@H](Oc2ccc(-c3cn(-c4ccnc5cc(Cl)ccc45)nn3)cc2)O[C@@H]2OC3(C)CC[C@H]4[C@H](C)CC[C@@H]1[C@@]24OO3', '%', 19.3),
  ('CC12OOC(C)(OO1)C2CCC(=O)NCCCNc1ccnc2cc(Cl)ccc12 (stereo unspecified)', '%', 58.1),
  ('C[C@H]1[C@H](OC(=O)CCC(=O)N(CCCc2cn(-c3ccc(CN4CCOCC4)cc3)nn2)CCNc2ccnc3cc(Cl)ccc23)O[C@@H]2OC3(C)CC[C@H]4[C@H](C)CC[C@@H]1[C@@]24OO3', '%', 11.2),
  ('CC[C@]12C=CCN3CC[C@@]4(c5ccc(OC)cc5N(C)[C@H]4[C@@](O)(C(=O)OC)[C@@H]1OC(=O)CCCC[P+](c1ccc(C)cc1)(c1ccc(C)cc1)c1ccc(C)cc1)[C@@H]32', '%', -81.2),
  ('O=C(/C=C/c1ccco1)c1nc2ccccc2n1Cc1ccc(F)cc1', '%', 8.93),
  ('C[C@H]1[C@H](OC(=O)CCC(=O)Nc2cnccn2)O[C@@H]2OC3(C)CC[C@H]4[C@H](C)CC[C@@H]1[C@@]24OO3', '%', 24.4),
  ('COCCOCCOCCOc1ccc(-n2cc(-c3ccc(O[C@H]4O[C@@H]5OC6(C)CC[C@H]7[C@H](C)CC[C@@H]([C@H]4C)[C@@]57OO6)cc3)nn2)cc1', '%', 14.9),
  ('O=C(NC([Se])=NC1CCCCC1)c1ccccc1', '%', 29.8);

Hi, could you look up growth for each item in my list?
1. O=C(NCCCCC(c1ccc(F)cc1)c1ccc(F)cc1)Nc1ccc([N+](=O)[O-])c(C(F)(F)F)c1
2. C#CCCCN(CCNc1ccnc2cc(Cl)ccc12)C(=O)CCC(=O)O[C@@H]1O[C@@H]2OC3(C)CC[C@H]4[C@H](C)CC[C@@H]([C@H]1C)[C@@]24OO3
3. N#C[Se]CC(=O)Nc1cccc(C(F)(F)F)c1

Response:
1.44
14.2
6

Hi, could you look up growth for each item in my list?
1. O=C(/C=C/c1ccc(F)cc1)c1nc2ccccc2n1Cc1ccc(Br)cc1
2. CCOP(=O)(CC(F)(F)C(F)(F)F)OCC
3. CC[C@]12C=CCN3CC[C@@]4(c5ccc(OC)cc5N(C)[C@H]4[C@@](O)(C(=O)OC)[C@@H]1OC(=O)CCC[P+](c1ccc(F)cc1)(c1ccc(F)cc1)c1ccc(F)cc1)[C@@H]32

Response:
1: -27.4; 2: 9.98; 3: 7.7

====

tested on: 786-0 renal; assay: NCI-60 one-dose screen, 48 h (100 = growth as untreated, 0 = no growth, -100 = all killed); settings: 10 µM
This is part of a sample that, as a whole, favours compounds with a hit. Of some 83,000 tested, about 20% had one in any assay. Active and inactive are the calls of the source. The calls were made as follows: active = growth percent below 10; inactive = the rest.
quantityName: growth

INSERT INTO assay_data (structurenotation, quantityname, result) VALUES
  ('O=C(/C=C/c1ccc(Br)cc1)c1nc2ccccc2n1Cc1ccc(Br)cc1', 'growth', '-81.3% (active)');

Hi, could you look up growth for each item in my list?
1. C=CC[Se]C(=O)c1cncc(C(=O)[Se]CC=C)c1
2. COc1ccc2cc([C@H](C)C(=O)[Se]CCC#N)ccc2c1

Response:
1: -97.3% (active); 2: -83.9% (active)

Query: Give its growth value. Item: C[C@H]1[C@H](OC(=O)CCC(=O)N(CCCc2cn(-c3ccc(CN4CCOCC4)cc3)nn2)CCNc2ccnc3cc(Cl)ccc23)O[C@@H]2OC3(C)CC[C@H]4[C@H](C)CC[C@@H]1[C@@]24OO3
Response: -65% (active)

====

test system: A498 renal; test: NCI-60 one-dose screen, 48 h (100 = growth as untreated, 0 = no growth, -100 = all killed); details: 10 µM
This is part of a sample that, as a whole, favours compounds with a hit. Of some 83,000 tested, about 20% had one in any assay.
Provide the recorded growth for the entries that follow.
Give bare numbers, in %.

Would you please look over these solved cases?
INSERT INTO assay_data (structurenotation, quantitativeresult) VALUES
  ('O=C(/C=C/c1ccccc1)c1nc2ccccc2n1Cc1ccc(Br)cc1', 51),
  ('CC(C)N=C([Se])NC(=O)c1cccs1', 36.6);

Now for a further molecule.
Query: Give its growth value. Item: O=C(/C=C/c1ccccc1)c1nc2ccccc2n1Cc1ccc(F)cc1
Response: 106
